Each recorded value in this set is attributed to patent US20120214847A1.

# assayTarget: human GR (Homo sapiens, UniProt P04150)
# Construct: naturally expresses the human GR; endogenous in cells
# Sequence (P04150 whole entry): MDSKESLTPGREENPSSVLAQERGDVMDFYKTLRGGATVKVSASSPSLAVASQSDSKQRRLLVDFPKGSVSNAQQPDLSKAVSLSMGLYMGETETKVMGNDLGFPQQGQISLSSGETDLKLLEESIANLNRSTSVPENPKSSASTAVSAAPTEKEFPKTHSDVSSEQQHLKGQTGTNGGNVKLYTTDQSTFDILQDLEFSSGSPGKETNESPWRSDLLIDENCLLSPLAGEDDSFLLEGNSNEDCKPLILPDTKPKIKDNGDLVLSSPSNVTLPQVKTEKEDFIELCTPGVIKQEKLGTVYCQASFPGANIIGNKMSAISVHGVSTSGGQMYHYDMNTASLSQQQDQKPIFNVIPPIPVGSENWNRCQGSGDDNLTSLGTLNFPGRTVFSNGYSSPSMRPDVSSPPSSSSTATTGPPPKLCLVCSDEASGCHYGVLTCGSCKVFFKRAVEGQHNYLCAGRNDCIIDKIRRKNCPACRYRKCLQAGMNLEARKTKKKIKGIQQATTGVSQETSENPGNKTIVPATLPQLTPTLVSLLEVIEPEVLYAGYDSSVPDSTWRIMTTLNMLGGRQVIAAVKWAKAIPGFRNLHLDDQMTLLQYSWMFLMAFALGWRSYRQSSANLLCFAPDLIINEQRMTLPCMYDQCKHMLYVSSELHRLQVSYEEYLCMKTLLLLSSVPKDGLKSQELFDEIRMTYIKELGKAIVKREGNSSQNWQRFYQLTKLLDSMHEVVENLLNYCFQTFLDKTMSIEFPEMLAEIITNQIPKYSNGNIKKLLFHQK
# assayDetails: Transrepression assay (GITAR), TNFα-β-lactamase reporter in U937 cells
# Type: cell-based
# assayConditions: U-937, U937 cells; activity repressed by 100 nM dexamethasone alone set as 100%
endpointName: Emax
Remember to follow the number with its unit.

Reference set, count: 6
1) N#Cc1ccnc(CC[C@]2(O)CCC3=Cc4c(cnn4-c4ccc(F)cc4)C[C@@]32C2CC2)c1	87%
2) CC(C)(CO)NC(=O)c1ccccc1CC[C@]1(O)CCC2=Cc3c(cnn3-c3ccc(F)cc3)C[C@@]21C1CC1	85%
3) CC[C@]12Cc3cnn(-c4cccnc4)c3C=C1CC[C@@]2(O)CCc1cccc(F)c1C(N)=O	88%
4) NC(=O)c1c(C2CC2)ccnc1CC[C@]1(O)CCC2=Cc3c(cnn3-c3ccc(F)cc3)C[C@@]21C1CC1	78%
5) CC[C@]12Cc3cnn(-c4ccc(F)cc4)c3C=C1CC[C@@]2(O)CCc1ncccc1S(=O)(=O)C(C)C	85%
6) NC(=O)c1cccnc1CC[C@]1(O)CCC2=Cc3c(cnn3-c3ccc(F)cc3)C[C@@]21C1CC1	77%

[Q] Given the compound `NC(=O)Cc1ccccc1CC[C@]1(O)CCC2=Cc3c(cnn3-c3ccc(F)cc3)C[C@@]21C1CC1` , write its reported Emax.
[A] 78%
